test_target: T1, HLA-DRw53 (DRB4*0101) (human)
T1 chain 1: not shown
T1 chain 2: not shown
Under this convention, Fulfilled denotes binding affinity ratio (IC50 of standard peptide / IC50 of test peptide) strictly below 0.01 and Not fulfilled denotes binding affinity ratio (IC50 of standard peptide / IC50 of test peptide) at or above 0.01.

INPUT: A record lists LIDVHDLISDMIKKE (modifications not checked) [… (Pf EXP 47)] . Is its binding affinity ratio (IC50 of standard peptide / IC50 of test peptide) below 0.01?
OUTPUT: Not fulfilled

INPUT: A record lists AGGLALLACAGLAYK (modifications not checked) [… (Pf SSP2 517)] . Is its binding affinity ratio (IC50 of standard peptide / IC50 of test peptide) below 0.01?
OUTPUT: Fulfilled

INPUT: A record lists VVILTDGIPDSIQDS (modifications not checked) [… (Pf SSP2 157)] . Is its binding affinity ratio (IC50 of standard peptide / IC50 of test peptide) below 0.01?
OUTPUT: Not fulfilled

INPUT: A record lists IGPFMKAVCVEVEKT (modifications not checked) [… (Pf SSP2 227)] . Is its binding affinity ratio (IC50 of standard peptide / IC50 of test peptide) below 0.01?
OUTPUT: Not fulfilled

INPUT: A record lists AVPLAMKLIQQLNLN (modifications not checked) [… (Pf SSP2 68)] . Is its binding affinity ratio (IC50 of standard peptide / IC50 of test peptide) below 0.01?
OUTPUT: Not fulfilled

INPUT: A record lists AGGIAGGLALLACAG (modifications not checked) [… (Pf SSP2 513)] . Is its binding affinity ratio (IC50 of standard peptide / IC50 of test peptide) below 0.01?
OUTPUT: Fulfilled
